# key: entry, value: AUC(0-inf)
assay.notes: Pharmacokinetic study in rats
Assay type: in vivo, SD rats
condition.set: male, SD, plasma; rat, IV, 1 mg/kg
outcome.measure: AUC(0-inf) (ng·h/mL)

[[record]]
compound = "Fc1ccc2c(c1CNc1ncc(OC3CCOCC3)c3nncn13)CCO2 [HJM-016]"
unit_abbrev = "ng·h/mL"
obs_value = 2060

[[record]]
compound = "CCN(C(=O)C1CC1)c1cnc(NCc2c(F)ccc3c2CCO3)n2cnnc12 [HJM-079]"
unit_abbrev = "ng·h/mL"
obs_value = 857

[[record]]
compound = "O=C(Nc1cnc(NCc2c(F)ccc3c2CCO3)n2cnnc12)C1CC1 [HJM-030]"
unit_abbrev = "ng·h/mL"
obs_value = 1230


###

assay.notes: Pharmacokinetic study in rats
Assay type: in vivo, SD rats
condition.set: male, SD, plasma; rat, IV, 1 mg/kg
Labelling: Cmax reported below 1000 ng/mL becomes 1.0; at or above becomes 0.0.

[[record]]
molecule = "CC1(COc2cnc(NCc3c(F)ccc4c3CCO4)n3cnnc23)COC1 [HJM-105]"
class_name = 0.0

[[record]]
molecule = "CCN(C(=O)C1CC1)c1cnc(NCc2c(F)ccc3c2CCO3)n2cnnc12 [HJM-079]"
class_name = 1.0

[[record]]
molecule = "Fc1ccc2c(c1CNc1ncc(OCC3COC3)c3nncn13)CCO2 [HJM-104]"
class_name = 0.0

[[record]]
molecule = "Fc1ccc2c(c1CNc1ncc(OCC3CCOC3)c3nncn13)CCO2 (centres unmarked) [HJM-102]"
class_name = 0.0

[[record]]
molecule = "Fc1ccc2c(c1CNc1ncc(OC3CCOCC3)c3nncn13)CCO2 [HJM-016]"
class_name = 1.0

[[record]]
molecule = "CN(C(=O)C1CC1)c1cnc(NCc2c(F)ccc3c2CCO3)n2cnnc12 [HJM-045]"
class_name = 1.0

[[record]]
molecule = "O=C1CCCN1c1cnc(NCc2c(F)ccc3c2CCO3)n2cnnc12 [HJM-067]"
class_name = 1.0

[[record]]
molecule = "O=C(Nc1cnc(NCc2c(F)ccc3c2CCO3)n2cnnc12)C1CC1 [HJM-030]"
class_name = 0.0


###

Cmax listing for selected compounds.
assay.notes: Pharmacokinetic study in rats
Assay type: in vivo, SD rats
condition.set: male, SD, plasma; rat, PO, 2 mg/kg
outcome.measure: Cmax (ng/mL)

[[record]]
compound = "Fc1ccc2c(c1CNc1ncc(OCC3CCOC3)c3nncn13)CCO2 (centres unmarked)"
unit_abbrev = "ng/mL"
obs_value = 369

[[record]]
compound = "CC1(COc2cnc(NCc3c(F)ccc4c3CCO4)n3cnnc23)COC1"
unit_abbrev = "ng/mL"
obs_value = 342

[[record]]
compound = "CN(C(=O)C1CC1)c1cnc(NCc2c(F)ccc3c2CCO3)n2cnnc12"
unit_abbrev = "ng/mL"
obs_value = 119

[[record]]
compound = "Fc1ccc2c(c1CNc1ncc(OC3CCOCC3)c3nncn13)CCO2"
unit_abbrev = "ng/mL"
obs_value = 482

[[record]]
compound = "O=C(Nc1cnc(NCc2c(F)ccc3c2CCO3)n2cnnc12)C1CC1"
unit_abbrev = "ng/mL"
obs_value = 394

[[record]]
compound = "O=C1CCCN1c1cnc(NCc2c(F)ccc3c2CCO3)n2cnnc12"
unit_abbrev = "ng/mL"
obs_value = 306

[[record]]
compound = "CCN(C(=O)C1CC1)c1cnc(NCc2c(F)ccc3c2CCO3)n2cnnc12"
unit_abbrev = "ng/mL"
obs_value = 222

[[record]]
compound = "Fc1ccc2c(c1CNc1ncc(OCC3COC3)c3nncn13)CCO2"
unit_abbrev = "ng/mL"
obs_value = 586

